System: K562
Test: Cytotoxicity against human K562 cells after 72 hrs by MTT assay
Format: functional, cell-based
Conditions: K562, 72 h
Reported values of pIC50 for individual entries
pIC50 field: float, defined as -log10 of concentration (mol/L).

INSERT INTO measurements (compound, numeric_result) VALUES
  ('CCCCC(C)CC(O)(/C=C(/CC)[C@@H](O)CC(=O)OC)CC (stereo partly specified) [WOODYLIDE A]', 4.62),
  ('CC/C=C/[C@H]1C[C@](O)(CC)[C@@H]([C@]2(CC)OC(=O)C[C@@H]2O)[C@@H]1C', 4.71),
  ('CCCCC(C)C/C(=C/[C@@]1(CC)OC(=O)C[C@@H]1O)CC (stereo partly specified) [SIMPLEXOLIDE E]', 4.31),
  ('CCCCC(CC)CC(O)(/C=C(/CC)[C@@H](O)CC(=O)OC)CC (stereo partly specified) [WOODYLIDE B]', 4.70),
  ('CCCC[C@H](CC)C[C@]1(CC)C=C(CC)/C(=C/C(=O)OC)O1', 5.28);

Query: What value of pIC50 has been recorded for this entry: CCCCC(C)C/C(=C\[C@@]1(CC)OC(=O)C[C@@H]1O)CC (stereo partly specified) [SIMPLEXOLIDE B]
Result: 5.66

Query: What value of pIC50 has been recorded for this entry: `CC/C=C/[C@H](CC)C[C@]1(CC)C=C(CC)/C(=C/C(=O)OC)O1`
Result: 6.10

====

System: K562
Test: Cytotoxicity against human K562 cells after 72 hrs by MTT assay
Type: functional, cell-based
Settings: K562, 72 h
pIC50: −log10 of the molar value.
measured-parameter: pIC50

Examples from the recorded data:
INSERT INTO assay_data (compound, result) VALUES
  ('CCCCC(C)Cc1cc(CC)c(CC(=O)O)o1 (centres undefined)', '< 4.00'),
  ('CCCCC(CC)C[C@]1(CC)O[C@H]1[C@]1(CC)C=CC(=O)O1 (some centres undefined) [PLAKORTOXIDE B]', '< 4.00'),
  ('CCCCC(C)C[C@]1(CC)O[C@H]1[C@]1(CC)C=CC(=O)O1 (some centres undefined) [PLAKORTOXIDE A]', '< 4.30');

Now examine the next entry.
Query: Give pIC50 (K562) of the following compound: `CCC[C@@H]1[C@@H](C)C[C@](O)(CC)[C@H]1[C@]1(CC)OC(=O)C[C@@H]1O`
Result: < 4.00

Taken from ChEMBL document CHEMBL2331122.
